- assayed.target: T1, hFc-hFasL (fusion protein of human Fc fragment and human FasL extracellular region) (human, UniProt P48023 134-281)
- T1 construct: the order here follows the name hFc-hFasL; also called hFc-FasL; hFc-hFasL antigen; not shown: human Fc fragment tag
- T1 sequence: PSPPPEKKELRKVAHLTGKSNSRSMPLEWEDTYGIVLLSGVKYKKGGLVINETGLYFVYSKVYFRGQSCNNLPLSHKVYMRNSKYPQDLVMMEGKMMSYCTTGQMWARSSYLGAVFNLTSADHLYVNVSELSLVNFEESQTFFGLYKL
- run.description: ELISA, hFc-hFasL coated, antibody titrated, anti-human kappa-HRP
property.measured: pEC50
The meaning of pEC50 here: minus log10 of the concentration in molar units.

Record excerpt, results attached:
• FL-M78 (antibody, V domains shown, Chimeric full-length antibody, tested as human IgG4 / human kappa) VH: DVQLQESGGGLVQPGGSRKLSCAASGFTFSSYDMSWVRQTPEKRLEWVAFISSGGGSTYYPDTVKGRFTISRDNAKNTLYLQMSSLKSEDSAMYYCGRHYDNYLYAMDYWGQGTSVTVSS VL: DIVMTQSPASQSASLGESVTITCLASQTIGTWLAWYQQKPGKSPQLLIYAATSLADGVPSRFSGSGSGTKFSFKISSLQAEDFVSYYCQQLYSTPFTFGGGTKLEIK = 9.09
• FL-M89 (antibody, V domains shown, Chimeric full-length antibody, tested as human IgG4 / human kappa) VH: EVQLQQSGAELVRPGVSVKISCKGSGYTFTDYTIHWVKQSHAKSLEWIGVISTYQGDASYNQKFKGKATMTVDKSSSTAYMELARLTSEDSAIYYCARFPDWDYAMDYWGQGTSVTVSS VL: DIVMTQSPASLAVSLGQRATISCKASQSVDYDGDSYMNWYQQKPGQPPKLLIYAASNLESGIPARFSGSGSGTDFTLNIHPVEEEDAATYYCQQSRELPYTFGGGTKLEIK = 9.36

Return the recorded pEC50 value; entry: FL-M08 (antibody, V domains shown, Chimeric full-length antibody, tested as human IgG4 / human kappa) VH: QIQLLQSGAELVRPGVSVKISCKGSGYTFTDYAMHWVKQSHAKSLEWIGVISTYQGDANYNQKFKGKATMTVDKSSSTAYMELARLTSEDSAIYYCARFPDWDYAMDYWGQGTSVTVSS VL: EIVLTQSPASLAVSLGQRATISCKASQSVDYDGDSYMNWYQQKPGQPPKLLIYAASNLESGIPARFSGSGSGTDFTLNIHPVEEEDAATYYCQHSRELPYTFGGGTKLEIK
9.80
